Where do the numbers come from? From PubChem BioAssay (NCI).

# System: OVCAR-8 ovarian
# procedure.text: NCI tumour cell line growth inhibition, 48 h
observed.property: TGI (µM)
Respond numerically; units are µM and should not be typed.

input: Kindly indicate its recorded TGI. Item: C=C1C(=O)O[C@@H]2[C@H](O)[C@@H](C)[C@@H]3C=CC(=O)[C@@]3(C)[C@@H](OC(=O)/C(C)=C/C)[C@H]12
output: 2.72

input: Kindly indicate its recorded TGI. Item: CC1=C2[C@@H](CC1)[C@]1(C)O[C@@](C(C)C)(C[C@H]1OC(=O)CO)[C@H]2OC(=O)C1CC1c1ccccc1 (some centres undefined)
output: 35.6

input: Kindly indicate its recorded TGI. Item: COc1ccc(C/C(=C(\C)c2ccc(OCCN3CCCC3)cc2)c2ccc(OCCN3CCCC3)cc2)cc1
output: 4.38

input: Kindly indicate its recorded TGI. Item: Cc1cc(S(=O)(=O)Nc2nc3ccccc3nc2-c2ccc(Cl)cc2)c(S)cc1Cl
output: 51.6

input: Kindly indicate its recorded TGI. Item: OC(COC(c1ccccc1)(c1ccccc1)c1ccccc1)C(O)CC1SCCS1 (centres undefined)
output: 57.7

input: Kindly indicate its recorded TGI. Item: CC1=C(C(=O)Nc2ccccc2)C(c2cccc3ccccc23)C(C(=O)Nc2ccccc2)=C(C)N1
output: 35.8

* * *

# Test system: K-562 leukemia
# procedure.text: NCI tumour cell line growth inhibition, 48 h
Field: TGI. Provide a value for each of the compounds that follow.

input: Kindly indicate its recorded TGI. Item: CC(=O)Oc1ccc2c(c1)CC[C@@H]1C2[C@@H](O[N+](=O)[O-])C[C@@]2(C)C1CC[C@@H]2O[N+](=O)[O-] (stereo partly specified)
output: 32.6 µM

input: Kindly indicate its recorded TGI. Item: CN(C)CCNC(=O)c1cccc2cc3c(Cl)cccc3nc12
output: 4.04 µM

input: Kindly indicate its recorded TGI. Item: Cc1cccc2nc3ccccc3c(Nc3ccc(NS(C)(=O)=O)cc3)c12
output: 26.8 µM

input: Kindly indicate its recorded TGI. Item: CN(C)c1ccc2oc(=O)c3ccccc3c2c1
output: > 100 µM

input: Kindly indicate its recorded TGI. Item: C[C@]12CC[C@H]3[C@@H](CC=C4C[C@@H](N5CCCC5)CC[C@@]43C)[C@@H]1C/C(=C\c1cccc(OCCN3CCOCC3)c1)[C@@H]2O
output: > 100 µM

input: Kindly indicate its recorded TGI. Item: Cc1ccc(-c2nc(N/N=C/c3ccc(O)cc3)c3ccccc3n2)cc1
output: > 100 µM

input: Kindly indicate its recorded TGI. Item: CC(N)(Cc1c[nH]c2cccc(F)c12)C(=O)O (stereo unspecified)
output: > 1000 µM

input: Kindly indicate its recorded TGI. Item: O=C(N=c1ccc2nc(=O)[nH]n(O)c-2c1)C(F)(F)F
output: > 100 µM

input: Kindly indicate its recorded TGI. Item: COc1ccc2c(c1OC)CO[C@@H]2[C@H]1c2c(cc3c(c2OC)OCO3)CCN1S(=O)(=O)c1cn(C)cn1
output: > 100 µM

input: Kindly indicate its recorded TGI. Item: O=C(c1ccccc1)C1S(=O)(=O)OCCOS1(=O)=O
output: > 100 µM

input: Kindly indicate its recorded TGI. Item: CC1CC[P+](c2ccccc2)(c2ccccc2)c2c1ccc1ccccc21 (stereo unspecified)
output: 17.8 µM

input: Kindly indicate its recorded TGI. Item: Cc1cc(=O)n2nc(CCl)sc2n1
output: 37.7 µM

input: Kindly indicate its recorded TGI. Item: COc1cc(/C=N/Nc2ncnc3c2cnn3-c2ccccc2)ccc1O
output: > 25 µM

input: Kindly indicate its recorded TGI. Item: CNC(=O)c1c(NC(=O)c2ccc(C(C)(C)C)cc2)sc2c1CCC(=O)C2
output: > 100 µM

input: Kindly indicate its recorded TGI. Item: CC(=O)Nc1c(Nc2ccccc2)[nH]c(C)nc1=S
output: > 100 µM

input: Kindly indicate its recorded TGI. Item: C=CCN(CCNS(=O)(=O)c1ccc(C)cc1)S(=O)(=O)c1ccc(C)cc1
output: > 100 µM

input: Kindly indicate its recorded TGI. Item: COc1c(-c2nc3nc(N4CCN(C)CC4)ccc3[nH]2)cc(OC)c2c1nc(COC(C)=O)n2C
output: > 100 µM

input: Kindly indicate its recorded TGI. Item: COC(=O)N/N=C(\C)c1c(O)cc(C)oc1=O
output: 97.7 µM

input: Kindly indicate its recorded TGI. Item: O=C(CSc1nc(-c2ccccc2)c(-c2ccccc2)[nH]1)N/N=C/c1ccc(O)cc1
output: > 100 µM

input: Kindly indicate its recorded TGI. Item: COc1ccc(/C(COc2ccc3oc(-c4ccccc4)cc(=O)c3c2)=N\O)cc1
output: > 33.3 µM

input: Kindly indicate its recorded TGI. Item: O=C1C(Cl)=C(N(C(=O)c2ccccc2)C(=O)c2ccccc2)C(=O)c2ccccc21
output: 20.6 µM
